Type: in vivo, Sprague Dawley rats
Details: Sprague-Dawley, rat, plasma, po, 100 mg/kg, T1/2, Fibersol-2 group (1.0 g/d/rat, two weeks); plasma after intragastric ginsenoside Rb1 100 mg/kg; mean ± SE
property.label: half-life

CC(C)=CCC[C@](C)(O[C@@H]1O[C@H](CO)[C@@H](O)[C@H](O)[C@H]1O)[C@H]1CC[C@]2(C)[C@@H]1[C@H](O)C[C@@H]1[C@@]3(C)CC[C@H](O[C@@H]4O[C@H](CO)[C@@H](O)[C@H](O)[C@H]4O)C(C)(C)[C@@H]3CC[C@]12C [F2, ginsenoside F2]; 2.67 h
CC(C)=CCC[C@](C)(O[C@@H]1O[C@H](CO)[C@@H](O)[C@H](O)[C@H]1O)[C@H]1CC[C@]2(C)[C@@H]1[C@H](O)C[C@@H]1[C@@]3(C)CC[C@H](O[C@@H]4O[C@H](CO)[C@@H](O)[C@H](O)[C@H]4O[C@@H]4O[C@H](CO)[C@@H](O)[C@H](O)[C@H]4O)C(C)(C)[C@@H]3CC[C@]12C [Rd, ginsenoside Rd]; 10.3 h
CC(C)=CCC[C@](C)(O[C@@H]1O[C@H](CO[C@@H]2O[C@H](CO)[C@@H](O)[C@H](O)[C@H]2O)[C@@H](O)[C@H](O)[C@H]1O)[C@H]1CC[C@]2(C)[C@@H]1[C@H](O)C[C@@H]1[C@@]3(C)CC[C@H](O[C@@H]4O[C@H](CO)[C@@H](O)[C@H](O)[C@H]4O[C@@H]4O[C@H](CO)[C@@H](O)[C@H](O)[C@H]4O)C(C)(C)[C@@H]3CC[C@]12C [Rb1, ginsenoside Rb1]; 24.2 h

###

Format: in vivo, Sprague Dawley rats
Conditions: 0 to 48 h; GOS group (1.0 g/d/rat, two weeks); plasma after intragastric ginsenoside Rb1 100 mg/kg; mean ± SE
Marks after values point to notes of the source that are not given here.
property.label: AUC

CC(C)=CCC[C@](C)(O[C@@H]1O[C@H](CO)[C@@H](O)[C@H](O)[C@H]1O)[C@H]1CC[C@]2(C)[C@@H]1[C@H](O)C[C@@H]1[C@@]3(C)CC[C@H](O)C(C)(C)[C@@H]3CC[C@]12C; 1434.71 ± 415.30^b ng/ml∗h
CC(C)=CCC[C@](C)(O[C@@H]1O[C@H](CO)[C@@H](O)[C@H](O)[C@H]1O)[C@H]1CC[C@]2(C)[C@@H]1[C@H](O)C[C@@H]1[C@@]3(C)CC[C@H](O[C@@H]4O[C@H](CO)[C@@H](O)[C@H](O)[C@H]4O)C(C)(C)[C@@H]3CC[C@]12C [F2, ginsenoside F2]; 121.97 ± 29.35^a ng/ml∗h
CC(C)=CCC[C@](C)(O[C@@H]1O[C@H](CO[C@@H]2O[C@H](CO)[C@@H](O)[C@H](O)[C@H]2O)[C@@H](O)[C@H](O)[C@H]1O)[C@H]1CC[C@]2(C)[C@@H]1[C@H](O)C[C@@H]1[C@@]3(C)CC[C@H](O[C@@H]4O[C@H](CO)[C@@H](O)[C@H](O)[C@H]4O[C@@H]4O[C@H](CO)[C@@H](O)[C@H](O)[C@H]4O)C(C)(C)[C@@H]3CC[C@]12C [Rb1, ginsenoside Rb1]; 30813.79 ± 3334.99^b ng/ml∗h
CC(C)=CCC[C@](C)(O[C@@H]1O[C@H](CO)[C@@H](O)[C@H](O)[C@H]1O)[C@H]1CC[C@]2(C)[C@@H]1[C@H](O)C[C@@H]1[C@@]3(C)CC[C@H](O[C@@H]4O[C@H](CO)[C@@H](O)[C@H](O)[C@H]4O[C@@H]4O[C@H](CO)[C@@H](O)[C@H](O)[C@H]4O)C(C)(C)[C@@H]3CC[C@]12C [Rd, ginsenoside Rd]; 1479.93 ± 381.35^b ng/ml∗h

###

Entries and their half-life
Type: in vivo, Sprague Dawley rats
Conditions: Sprague-Dawley, rat, plasma, po, 100 mg/kg, T1/2, GOS group (1.0 g/d/rat, two weeks); plasma after intragastric ginsenoside Rb1 100 mg/kg; mean ± SE
property.label: half-life (h)

CC(C)=CCC[C@](C)(O[C@@H]1O[C@H](CO)[C@@H](O)[C@H](O)[C@H]1O)[C@H]1CC[C@]2(C)[C@@H]1[C@H](O)C[C@@H]1[C@@]3(C)CC[C@H](O[C@@H]4O[C@H](CO)[C@@H](O)[C@H](O)[C@H]4O)C(C)(C)[C@@H]3CC[C@]12C [F2, ginsenoside F2]; 4.52
CC(C)=CCC[C@](C)(O[C@@H]1O[C@H](CO[C@@H]2O[C@H](CO)[C@@H](O)[C@H](O)[C@H]2O)[C@@H](O)[C@H](O)[C@H]1O)[C@H]1CC[C@]2(C)[C@@H]1[C@H](O)C[C@@H]1[C@@]3(C)CC[C@H](O[C@@H]4O[C@H](CO)[C@@H](O)[C@H](O)[C@H]4O[C@@H]4O[C@H](CO)[C@@H](O)[C@H](O)[C@H]4O)C(C)(C)[C@@H]3CC[C@]12C [Rb1, ginsenoside Rb1]; 19.7
CC(C)=CCC[C@](C)(O[C@@H]1O[C@H](CO)[C@@H](O)[C@H](O)[C@H]1O)[C@H]1CC[C@]2(C)[C@@H]1[C@H](O)C[C@@H]1[C@@]3(C)CC[C@H](O[C@@H]4O[C@H](CO)[C@@H](O)[C@H](O)[C@H]4O[C@@H]4O[C@H](CO)[C@@H](O)[C@H](O)[C@H]4O)C(C)(C)[C@@H]3CC[C@]12C [Rd, ginsenoside Rd]; 18.6

###

Format: in vivo, Sprague Dawley rats
Settings: 0 to 48 h; Fibersol-2 group (1.0 g/d/rat, two weeks); plasma after intragastric ginsenoside Rb1 100 mg/kg; mean ± SE
Marks after values point to notes of the source that are not given here.
property.label: AUC

CC(C)=CCC[C@](C)(O[C@@H]1O[C@H](CO)[C@@H](O)[C@H](O)[C@H]1O)[C@H]1CC[C@]2(C)[C@@H]1[C@H](O)C[C@@H]1[C@@]3(C)CC[C@H](O)C(C)(C)[C@@H]3CC[C@]12C; 1251.99 ± 740.67^b ng/ml∗h
CC(C)=CCC[C@](C)(O[C@@H]1O[C@H](CO)[C@@H](O)[C@H](O)[C@H]1O)[C@H]1CC[C@]2(C)[C@@H]1[C@H](O)C[C@@H]1[C@@]3(C)CC[C@H](O[C@@H]4O[C@H](CO)[C@@H](O)[C@H](O)[C@H]4O[C@@H]4O[C@H](CO)[C@@H](O)[C@H](O)[C@H]4O)C(C)(C)[C@@H]3CC[C@]12C [Rd, ginsenoside Rd]; 1754.98 ± 335.76^b ng/ml∗h
CC(C)=CCC[C@](C)(O[C@@H]1O[C@H](CO[C@@H]2O[C@H](CO)[C@@H](O)[C@H](O)[C@H]2O)[C@@H](O)[C@H](O)[C@H]1O)[C@H]1CC[C@]2(C)[C@@H]1[C@H](O)C[C@@H]1[C@@]3(C)CC[C@H](O[C@@H]4O[C@H](CO)[C@@H](O)[C@H](O)[C@H]4O[C@@H]4O[C@H](CO)[C@@H](O)[C@H](O)[C@H]4O)C(C)(C)[C@@H]3CC[C@]12C [Rb1, ginsenoside Rb1]; 42110.46 ± 6452.33^c ng/ml∗h

Provenance of the data: paper PMC8020290
